system: FADU; test: Cytotoxicity MTS, solid tumors, Pharynx FADU; type: cell-based; conditions: 4-Parameter Curve Fit, NA = not active
We label by threshold. Values of IC50 strictly beneath 200 nM are 1. Values of 200 nM and up are 0.

# COMPOUND, ASSIGNED_LABEL
rows = [
    ("CCCCCCCCCCCCCCCC(=O)[C@@H](N)CC [drawing 121]", 0),
    ("CCCCCCCCCCCCCC[C@@H](O)[C@H](C)N [drawing 117]", 0),
    ("CCCCCCCCCCCCCCC[C@@H](O)[C@@H](N)CC [drawing 116]", 0),
    ("CCCCCCCCCCCCCCC[C@@H](O)[C@@H](N)CF [drawing 122]", 0),
    ("CCCCCCCCCCCCCCCC[C@@H](O)[C@H](C)N [drawing 113]", 1),
    ("CCCCCCCCCCCCCCCCCC(=O)[C@H](C)N [drawing 120]", 0),
    ("CCCCCCCCCCCCCC[C@@H](O)[C@H](C)N [drawing 115]", 1),
    ("CCCCCCCCCCCCCCCCC[C@@H](O)[C@H](C)N [drawing 114]", 1),
    ("CCCCCCCCCCCCCCC[C@@H](O)[C@H](C)N [drawing 112]", 0),
]
